Origin of the recorded values: the supplement of paper PMC11061612

System: L-540 (Hodgkin's Lymphoma)
ASSAY REMARKS: Bliss excess, mean over the matrix (fraction); higher = more synergy;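 also: after 72 h of two-drug dosing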
Give yes when the value for Bliss excess is at least 0.01. Give no when it is less.

Data request: Assess whether reported Bliss excess for COc1cc2c(cc1OCCCCCOc1cc3c(cc1OC)C(=O)N1C=C(C)C[C@H]1C=N3)N=C[C@@H]1CC(C)=CN1C2=O [SG3199] + O=C(c1cc(Cc2n[nH]c(=O)c3ccccc23)ccc1F)N1CCN(C(=O)C2CC2)CC1 [Olaparib] (first compound max 0.001 µM, 7x7, partner max 10 µM) sits at 0.01 or higher.
Data returned: no

Data request: Is Bliss excess for Cc1cc2ncnn2cc1Nc1ncc2c(n1)n(C1CCOCC1)c(=O)n2C [AZD7648] + C=CCn1c(=O)c2cnc(Nc3ccc(N4CCN(C)CC4)cc3)nc2n1-c1cccc(C(C)(C)O)n1 [AZD1775] (first compound max 10 µM, partner max 1 µM) at or above 0.01?
Data returned: yes

Data request: Item C=CCn1c(=O)c2cnc(Nc3ccc(N4CCN(C)CC4)cc3)nc2n1-c1cccc(C(C)(C)O)n1 [AZD1775] + CCc1c2c(nc3ccc(O)cc13)-c1cc3c(c(=O)n1C2)COC(=O)[C@]3(O)CC [SN-38] (first compound max 1 µM, partner max 0.3 µM) with Bliss excess of 0.01 or above?
Data returned: no

Data request: Determine whether measured Bliss excess meets or exceeds 0.01 for CCc1c2c(nc3ccc(O)cc13)-c1cc3c(c(=O)n1C2)COC(=O)[C@]3(O)CC [SN-38] + CN(C)CCCOc1ccc(-c2ccc3ncc4c(c3c2)n(C2CCOCC2)c(=O)n4C)cn1 [AZD0156] (first compound max 0.3 µM, 7x7, partner max 1 µM)
Data returned: yes

Data request: Evaluate CN(C)CCCOc1ccc(-c2ccc3ncc4c(c3c2)n(C2CCOCC2)c(=O)n4C)cn1 [AZD0156] + C=CCn1c(=O)c2cnc(Nc3ccc(N4CCN(C)CC4)cc3)nc2n1-c1cccc(C(C)(C)O)n1 [AZD1775] (first compound max 1 µM, partner max 1 µM) : Bliss excess at minimum 0.01?
Data returned: yes

Data request: Item CN(CCO)CC[C@H](CSc1ccccc1)Nc1ccc(S(=O)(=O)NC(=O)c2ccc(N3CCC([C@@H](O)c4ccccc4-c4ccc(Cl)cc4)CC3)cc2)cc1S(=O)(=O)C(F)(F)F [AZD4320] + CC(=O)O[C@H]1C(=O)[C@@]2(C)[C@H]([C@H](OC(=O)c3ccccc3)[C@]3(O)C[C@H](OC(=O)[C@H](O)[C@@H](NC(=O)c4ccccc4)c4ccccc4)C(C)=C1C3(C)C)[C@]1(OC(C)=O)CO[C@@H]1C[C@@H]2O [Paclitaxel] (first compound max 1 µM, 7x7, partner max 3 µM) with Bliss excess of 0.01 or above?
Data returned: yes

Data request: Given Cc1cc2ncnn2cc1Nc1ncc2c(n1)n(C1CCOCC1)c(=O)n2C [AZD7648] + CN(C)CCCOc1ccc(-c2ccc3ncc4c(c3c2)n(C2CCOCC2)c(=O)n4C)cn1 [AZD0156] (first compound max 10 µM, 7x7, partner max 1 µM) , state whether its Bliss excess is at least 0.01.
Data returned: no

Data request: Could you verify whether the entry CN(CCO)CC[C@H](CSc1ccccc1)Nc1ccc(S(=O)(=O)NC(=O)c2ccc(N3CCC([C@@H](O)c4ccccc4-c4ccc(Cl)cc4)CC3)cc2)cc1S(=O)(=O)C(F)(F)F [AZD4320] + Cc1cc2ncnn2cc1Nc1ncc2c(n1)n(C1CCOCC1)c(=O)n2C [AZD7648] (first compound max 1 µM, 7x7, partner max 10 µM) shows Bliss excess of no less than 0.01?
Data returned: yes

Data request: Given Cc1c2c(nn1C)CSCc1cc(n(C)n1)CSc1cc(c3ccccc3c1)OCCCc1c(C(=O)O)n(C)c3c-2c(Cl)ccc13 [AZD5991] + CN(C)CCCOc1ccc(-c2ccc3ncc4c(c3c2)n(C2CCOCC2)c(=O)n4C)cn1 [AZD0156] (first compound max 1 µM, 7x7, partner max 1 µM) , state whether its Bliss excess is at least 0.01.
Data returned: no

Data request: Could you please find out whether Cc1c2c(nn1C)CSCc1cc(n(C)n1)CSc1cc(c3ccccc3c1)OCCCc1c(C(=O)O)n(C)c3c-2c(Cl)ccc13 [AZD5991] + C=CCn1c(=O)c2cnc(Nc3ccc(N4CCN(C)CC4)cc3)nc2n1-c1cccc(C(C)(C)O)n1 [AZD1775] (first compound max 1 µM, partner max 1 µM) has Bliss excess that meets 0.01 or exceeds it?
Data returned: no

Data request: Reported Bliss excess reaches at least 0.01 for O=C(c1cc(Cc2n[nH]c(=O)c3ccccc23)ccc1F)N1CCN(C(=O)C2CC2)CC1 [Olaparib] + Cc1c2c(nn1C)CSCc1cc(n(C)n1)CSc1cc(c3ccccc3c1)OCCCc1c(C(=O)O)n(C)c3c-2c(Cl)ccc13 [AZD5991] (first compound max 10 µM, 7x7, partner max 1 µM) ?
Data returned: yes

Data request: Decide: Bliss excess of Cc1nc(Nc2ncc(C(=O)Nc3c(C)cccc3Cl)s2)cc(N2CCN(CCO)CC2)n1 [Dasatinib] + CC(=O)Nc1cccc(-n2c(=O)n(C3CC3)c(=O)c3c(Nc4ccc(I)cc4F)n(C)c(=O)c(C)c32)c1 [Trametinib] (first compound max 2 µM, 7x7, partner max 1 µM) >= 0.01?
Data returned: no

Data request: Please tell me: is the molecule CCN(CCO)CCCOc1ccc2c(Nc3cc(CC(=O)Nc4cccc(F)c4)[nH]n3)ncnc2c1 [AZD2811] + O=C(c1cc(Cc2n[nH]c(=O)c3ccccc23)ccc1F)N1CCN(C(=O)C2CC2)CC1 [Olaparib] (first compound max 1 µM, 7x7, partner max 10 µM) at or over 0.01 in terms of Bliss excess?
Data returned: yes

---

Test system: KCL-22 (Chronic Myelogenous Leukemia)
ASSAY REMARKS: Bliss excess, mean over the matrix (fraction); higher = more synergy
OBSERVABLE: Bliss excess
Write no unit; give the number alone.

Data request: Tell me measured Bliss excess for Cc1cc2ncnn2cc1Nc1ncc2c(n1)n(C1CCOCC1)c(=O)n2C [AZD7648] + CN(C)CCCOc1ccc(-c2ccc3ncc4c(c3c2)n(C2CCOCC2)c(=O)n4C)cn1 [AZD0156] (first compound max 10 µM, 7x7, partner max 1 µM) please.
Data returned: 0.0542

Data request: Return value of Bliss excess for input CN(CCO)CC[C@H](CSc1ccccc1)Nc1ccc(S(=O)(=O)NC(=O)c2ccc(N3CCC([C@@H](O)c4ccccc4-c4ccc(Cl)cc4)CC3)cc2)cc1S(=O)(=O)C(F)(F)F [AZD4320] + C1CN(CCC1(C(=O)N[C@@H](CCO)C2=CC=C(C=C2)Cl)N)C3=NC=NC4=C3C=CN4 [Capivasertib] (first compound max 1 µM, 7x7, partner max 3 µM) , no commentary.
Data returned: -0.0075

Data request: Report Bliss excess for NC1(C(=O)N[C@@H](CCO)c2ccc(Cl)cc2)CCN(c2ncnc3[nH]ccc23)CC1 [Capivasertib] + Cn1cnc2c(F)c(Nc3ccc(Br)cc3Cl)c(C(=O)NOCCO)cc21 [Selumetinib] (first compound max 10 µM, 7x7, partner max 10 µM)
Data returned: 0.117

---

Test system: MEL-JUSO (Melanoma)
ASSAY REMARKS: Bliss excess, mean over the matrix (fraction); higher = more synergy
So I've got a bunch of compounds here, and I need their Bliss excess values.
Quick one: just the number, no unit, thanks!

Data request: Specify reported Bliss excess for the compound shown: Cc1cc2ncnn2cc1Nc1ncc2c(n1)n(C1CCOCC1)c(=O)n2C [AZD7648] + O=C(c1cc(Cc2n[nH]c(=O)c3ccccc23)ccc1F)N1CCN(C(=O)C2CC2)CC1 [Olaparib] (first compound max 10 µM, 7x7, partner max 10 µM)
Data returned: -0.0264

Data request: State, in one line, measured Bliss excess of C=CCn1c(=O)c2cnc(Nc3ccc(N4CCN(C)CC4)cc3)nc2n1-c1cccc(C(C)(C)O)n1 [AZD1775] + C1CN(CCC1(C(=O)N[C@@H](CCO)C2=CC=C(C=C2)Cl)N)C3=NC=NC4=C3C=CN4 [Capivasertib] (first compound max 3 µM, partner max 3 µM)
Data returned: -0.0352

Data request: Report measured Bliss excess; entry is CC1(C)CCC(CN2CCN(c3ccc(C(=O)NS(=O)(=O)c4ccc(NCC5CCOCC5)c([N+](=O)[O-])c4)c(Oc4cnc5[nH]ccc5c4)c3)CC2)=C(c2ccc(Cl)cc2)C1 [Venetoclax] + CN(C)CCCOc1ccc(-c2ccc3ncc4c(c3c2)n(C2CCOCC2)c(=O)n4C)cn1 [AZD0156] (first compound max 1 µM, 7x7, partner max 1 µM)
Data returned: -0.0128

---

System: MEL-JUSO (Melanoma)
ASSAY REMARKS: Bliss excess, mean over the matrix (fraction); higher = more synergy
What Bliss excess was measured for each of the following?
Just the number.

Data request: Give Bliss excess only, for CN(C)CCCOc1ccc(-c2ccc3ncc4c(c3c2)n(C2CCOCC2)c(=O)n4C)cn1 [AZD0156] + CCN(CCO)CCCOc1ccc2c(Nc3cc(CC(=O)Nc4cccc(F)c4)[nH]n3)ncnc2c1 [AZD2811] (first compound max 1 µM, 7x7, partner max 1 µM) , using MEL-JUSO (Melanoma) data.
Data returned: -0.0039

Data request: Tell me its Bliss excess on MEL-JUSO (Melanoma): CC1(C)CCC(CN2CCN(c3ccc(C(=O)NS(=O)(=O)c4ccc(NCC5CCOCC5)c([N+](=O)[O-])c4)c(Oc4cnc5[nH]ccc5c4)c3)CC2)=C(c2ccc(Cl)cc2)C1 [Venetoclax] + C=CCn1c(=O)c2cnc(Nc3ccc(N4CCN(C)CC4)cc3)nc2n1-c1cccc(C(C)(C)O)n1 [AZD1775] (first compound max 1 µM, partner max 1 µM)
Data returned: -0.0447
